experiment description: differential killing of epithelial or mesenchymal cells, primary screen, imaging, PC-3E GFP, TEM4-18 mCherry, co-culture (AID 1345086);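 note: cells exposed to compound for 72 h before imaging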
assay context: imaging cell counts, measured here: mesenchymal TEM4-18 mCherry cell survival, at 1 µM
readout label: normalised cell number
The reply should be a number, written without any unit.

The following molecules have reported results that may help.
COc1c(N2CC[C@@H](CN)C2)c(F)cc2c(=O)c(C(=O)O)cn(Cc3ccc4ccccc4c3)c12: 0.93
CO[C@@]1(NC(=O)CSCC#N)C(=O)N2C(C(=O)O)=C(CSc3nnnn3C)CSC21 (stereo partly drawn): 0.95
CCCC[C@@H](CC)COC(=O)c1ccccc1O: 1.04
COc1cc(/C=C/C(=O)O)cc(OC)c1O: 1.2
C=CCOC(Cn1ccnc1)c1ccc(Cl)cc1Cl (stereo not drawn): 1.45

For the molecule shown here, C[C@H](O)[C@@H]1N[C@H]2N(C1=O)c1ccccc1C21CC2C(=O)NC1c1nc3ccccc3c(=O)n12 (stereo partly drawn) , give the reported normalised cell number. 0.95

# repeat for O=C(O)c1ccc([C@H](O)c2ccccc2)cn1 1.09

And then C[C@@H]1O[C@@H](O[C@H]2[C@@H](Oc3cc(O)c4c(c3)O[C@H](c3ccc(O)cc3)CC4=O)O[C@H](CO)[C@@H](O)[C@@H]2O)[C@H](O)[C@H](O)[C@H]1O , what is it? 1.04

What do you have for CC(=O)OC[C@@]1(O)C[C@@]23CCC4c5ccoc5CC[C@]4(C)C2CC[C@@H]1C3 (stereo partly drawn) ? 0.88

Proceed to Cc1ccc(S(=O)(=O)O[C@H]2CCOC2=O)cc1 1.06

Field entry: CC(=O)O[C@@H]1C[C@@]2(C)C(CC[C@@H]2C(C)=O)C2CCC3=CC(=O)CC[C@]3(C)C21 (stereo partly drawn) 0.94

Another molecule: O=C(O)c1c(Cl)nc(Cl)c2ccccc12 0.99

* * *

experiment description: MDA-MB-436 breast carcinoma cell growth inhibition, synergistic combos for chromothripsis tumors, BGB or cisplatin combos (AID 1671458);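 note: cells exposed for 96 hours; 0% = vehicle DMSO and 100% = killing by high DMSO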
assay context: MDA-MB-436 breast carcinoma growth inhibition, drug combinations; measured here: cisplatin combination; at 0.5 µM; stronger effect = higher value
# inhibition per entry
I only need the number, in %, no unit after it.

O=c1ncccn1[C@@H]1O[C@H](CO)[C@@H](O)[C@H]1O: -10.4
O=c1cc(-c2cccc3c2Sc2ccccc2S3)oc(N2CCOCC2)c1: -36.1
CC(C)N=c1cc2n(-c3ccc(Cl)cc3)c3ccccc3nc-2cc1Nc1ccc(Cl)cc1: -12.6
O=C(Nc1ccncc1)c1cc([N+](=O)[O-])ccc1Cl: -47.1
O=C(Nc1ccccc1)c1ccccc1O: -18

Proceed to the following item.
Which inhibition is reported for this compound? Cc1c(-c2cnccn2)ssc1=S -33

* * *

experiment description: ovarian cancer cell viability with rucaparib, profiling panel, oncology-focused library, rucaparib conditional (AID 1508598)
assay context: patient-derived ovarian cancer cells, CellTiter-Glo viability, 144 h; at 1.25 µM; OCI-P5x cells; with rucaparib 20 µM; stronger effect = lower value; 100% = cells with rucaparib alone
The following compounds are listed with their measured viability values.
Supply the numeric figure in %, leaving out any unit text.

CS(=O)c1ccc(-c2nc(-c3ccc(F)cc3)c(-c3ccncc3)[nH]2)cc1 (stereo unspecified): 130
C[C@@H](N)C1CCC(C(=O)Nc2ccncc2)CC1 (stereo partly specified): 106
CC(C)c1onc(-c2c(Cl)cccc2Cl)c1COc1ccc(/C=C/c2cccc(C(=O)O)c2)c(Cl)c1: 103
O=C1CN2Cc3c(ccc(Cl)c3Cl)N=C2N1: 88.3
Cc1ccc(S(=O)(=O)/C=C/C#N)cc1: 83.8

Then this compound:
Recorded viability for O=c1[nH]c(-c2ccc(C(F)(F)F)cc2)nc2c1CSCC2 , please? 113

* * *

experiment description: growth inhibition of DIPG glioma cells, dose response, cell-based, SU-DIPG-XIII, MIPE5.0, CellTiter-Glo, qHTS (AID 1347064)
assay context: SU-DIPG-XIII viability, CellTiter-Glo ATP luminescence
Records with an inconclusive call do not appear. Calls of active or inactive are those of the source. No cut-off is given here; in the data, nearly all actives have AC50 up to about 23 µM.
Select the correct class. Options are active, inactive and nothing else.

O=C(O)c1ccc(-c2c[nH]c3ncc(-c4ccccc4)cc23)cc1C1CCCC1: inactive
Cc1cc(NC(=O)Nc2ccc(N(C)C)cc2)c2cc(F)cc(F)c2n1: inactive
O=C1CN2Cc3c(ccc(Cl)c3Cl)N=C2N1: inactive

Field: next molecule
Record lookup: outcome of this test for Nc1ncnc2nc(-c3ccc(N4CCOCC4)nc3)cc(-c3cccc(Br)c3)c12 ? inactive

* * *

experiment description: inhibitors of mitochondrial cytochrome c release, biochemical, purified mitochondria (AID 1603);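 note: mouse liver mitochondria challenged with calcium chloride; signal normalized to the plate average as 100%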
assay context: stronger effect = lower value
readout label: cytochrome c release ratio
Answer with a number only.

Here is how some molecules turned out for cytochrome c release ratio.
CC(=O)OCC(=O)[C@@]1(O)CCC2C3CCC4=CC(=O)C=CC4(C)C3[C@@H](O)C[C@@]21C (some centres undefined): 0.8
CN1C2CCC1CC(OC(c1ccccc1)c1ccccc1)C2 (centres undefined): 1
C[C@H]1CC2C([C@@H](O)C[C@@]3(C)C2CC[C@]3(O)C(=O)CO)[C@@]2(C)C=CC(=O)C=C12 (some centres undefined): 0.64

Kindly review the next molecule as well.
Given C=CC[C@@H]1/C=C(\C)C[C@H](C)C[C@H](OC)[C@H]2O[C@@](O)(C(=O)C(=O)N3CCCC[C@H]3C(=O)O[C@H](/C(C)=C/[C@@H]3CC[C@@H](O)[C@H](OC)C3)[C@H](C)[C@@H](O)CC1=O)[C@H](C)C[C@@H]2OC , state its recorded cytochrome c release ratio. 2.76

* * *

System: R275C/beta4
experiment description: modulators of BK channel variants, profiling panel, selectivity assay, cell-based, U2OS BacMam, thallium flux, beta subunits (AID 1259406);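 note: initial slope of Thallos dye fluorescence rise after thallium is added; log ratio against the mean of 0.3% DMSO vehicle wells on the same plate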
assay context: at 30 µM
For each record, check the reported log fold change Tl+ flux: if it is below 0.01 write Y, else write N.

COc1ccc(C(C)=NO)cc1CN1CCCC1: Y

log fold change Tl+ flux under 0.01? Item: CN1c2ccccc2C(C)(C)C12C=Cc1cc(Br)cc([N+](=O)[O-])c1O2 (stereo unspecified) N

Same lookup for O=c1[nH]nc(N2CCSCC2)[nH]1 , please. N

* * *

experiment description: inhibition of 3D7 malaria parasite growth – strain 3D7 (AID 2306);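 note: 0% = DMSO wells and 100% = chloroquine plus artemisinin control wells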
assay context: P. falciparum 3D7 erythrocytic growth, LDH absorbance, 72 h; at 2 µM; stronger effect = higher value
Here the recorded growth inhibition is given for each entry.
Dear colleague, please return just the value in %, with no unit written.

Below: 6 compounds and their reported growth inhibition.
CCOC(=O)N1CCN(CCCCCNc2cc(C)nc(/N=C(\N)Nc3ccc(Cl)cc3)n2)CC1: 101
c1ccc2c(NCCOCCNc3c4ccccc4nc4ccccc34)c3ccccc3nc2c1: 94
Oc1c(CNC2CCCCC2)cc(Cl)c2ccccc12: 98
CCOc1ccc2ccccc2c1CNCCCCCCNCc1c(OCC)ccc2ccccc12: 100
Cc1cccc2[nH]c(-c3ccc(-c4cccc(NC(=O)CCc5cnc[nH]5)c4)cc3)nc12: 101
Cc1[nH]c(C)c(-c2ccc(Oc3ccccc3)cc2)c(=O)c1Br: 96

Looking for the measured growth inhibition of CC(C)(C)NCCN(Cc1ccc(-c2ccc(C(F)(F)F)cc2)cc1)C(=O)Cn1c(SCc2ccc(F)cc2)nc(=O)c2c1CCC2 , can you help? 97

Item: CCN1CCc2c1cc(C(=O)N[C@@H](Cc1ccccc1)[C@H](O)CNC(C)(C)c1cccc(C(F)(F)F)c1)cc2N1CCCCS1(=O)=O 100

How about CN(C)c1ccc2nc(N)nc(N)c2c1Cl ? 98

* * *

System: R275C
experiment description: modulators of BK channel variants, profiling panel, selectivity assay, cell-based, U2OS BacMam, thallium flux, beta subunits (AID 1259406);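 note: initial slope of Thallos dye fluorescence rise after thallium is added; log ratio against the mean of 0.3% DMSO vehicle wells on the same plate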
assay context: at 30 µM
Active and inactive are the calls of the source.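 The calls were made as follows: active = thallium flux through the channel raised or lowered by more than 3 SD from vehicle-only wells, actives on both sides; inactive = the rest.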
Pick from active, inactive when you respond.

CC(C)NCC(O)c1ccc(NS(C)(=O)=O)cc1 (centres undefined): inactive

Would you mind telling me which call this test gave O=C(NC(=O)N1CCCCC1)c1cc(Br)cc(Br)c1 ? active

// repeat for N[C@@H](C(=O)N[C@@H]1C(=O)N2C(C(=O)O)=C(CSc3cn[nH]n3)CS[C@H]12)c1ccc(O)cc1 (tested in a mixture with another compound) and report inactive

Same read-out for O=C(Cn1ccc(C(F)(F)F)n1)c1ccc(Cl)cc1 ? inactive

Also, COC(=O)C[C@](O)(CCCC(C)(C)O)C(=O)O[C@@H]1C(OC)=C[C@]23CCCN2CCc2cc4c(cc2[C@H]13)OCO4 please. inactive

Continue with COc1ccnc(CS(=O)c2nc3cc(OC(F)F)ccc3[nH]2)c1OC (centres undefined) inactive

* * *

experiment description: viability rescue of complex I mutant cybrids, primary screen, cell-based, galactose medium, ATP luminescence (AID 1645843);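 note: positive z means more ATP and so rescue of galactose-driven cybrid death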
assay context: complex I mutant cybrid cells, 72 h
The source made the active and inactive calls.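 The calls were made as follows: active = z-score of at least 1.8 in each of two replicates, scored against plate mean and spread of sample wells; inactive = the rest.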
Classes to choose from: active, inactive

Reference set (9 entries):
O=C(O)c1ccccc1Nc1ccccc1: active
CCCCCN=C(N)NN=Cc1c[nH]c2ccc(OC)cc12: inactive
O=c1ncc(F)c[nH]1: inactive
CCN(CC)CCOc1ccc(C(=C(Cl)c2ccccc2)c2ccccc2)cc1: inactive
CC(=O)c1ccc(S(=O)(=O)NC(=O)NC2CCCCC2)cc1: inactive
CN[C@@H]1[C@@H](O)[C@@H](O[C@@H]2[C@@H](O)[C@H](O[C@H]3O[C@H]([C@@H](C)NC)CC[C@H]3N)[C@@H](N)C[C@H]2N)OC[C@]1(C)O: inactive
CCOc1ccc(Nc2nc(-c3c(C)nc4ccccn34)cs2)cc1: inactive
CC(=CCC1=C(C)C(=O)c2ccccc2C1=O)CCCC(C)CCCC(C)CCCC(C)C (stereo not given): inactive
CC1=C(/C=C/C(C)=C/C=C/C(C)=C/C=C/C=C(C)/C=C/C=C(C)/C=C/C2=C(C)C(=O)CCC2(C)C)C(C)(C)CCC1=O: inactive

What did the test return for CCOC(=O)C1=C(N)Oc2ccc(Br)cc2C1C(C#N)C(=O)OCC (stereo not given) ? inactive
